Documented EC50 hGLP1R 0.5% hP (CreLuc) across a set of binders
# TESTED TARGET: GLP-1 receptor (human (printed as hGLP1R), UniProt P43220 24-463)
# EXPERIMENTAL PROTOCOL: cell-based or functional assay
Non-standard residues stand in square brackets, D forms with d. No end group written: not given here. Aib = CC(C)(N)C(=O)O

[
  {
    "BINDER": "YXEGTFTSDYSIXLEKQAQDAFVEWLIKGGPSSGASLRHYYNWLTRQRY (Aib at 2, 13; D-Asp at 20; K28 side chain carries C20DA-gGlu-gGlu-gGlu-gGlu-gGlu-gGlu-eLys; C-terminal amide) [Compound 211]",
    "UNIT INFO": "nM",
    "EC50 hGLP1R 0.5% hP (CreLuc)": 0.74
  },
  {
    "BINDER": "Y[Aib]EGTFTSDYSI[Aib]LEKQAQ[Aib]AFVEWLIKGGPEEPASLRHYYNWLTRQRY-NH2 (not fully specified (residue 28); also: TFA salt) [Compound 206]",
    "UNIT INFO": "nM",
    "EC50 hGLP1R 0.5% hP (CreLuc)": 0.43
  },
  {
    "BINDER": "YXEGTFTSDYSIXLEKQAQXAFVQWLIKGGPSEGASLRHYYNWLTRQRY (Aib at 2, 13, 20; K28 side chain carries C18DA-gGlu-gGlu-gGlu-gGlu-gGlu-OEG-OEG; C-terminal amide) [Compound 246]",
    "UNIT INFO": "nM",
    "EC50 hGLP1R 0.5% hP (CreLuc)": 0.11
  },
  {
    "BINDER": "YXEGTFTSDYSIXLEKQAQXAFVEWLIKGGPSSGASLRHYYNWRTRQRY (Aib at 2, 13, 20; D-Arg at 44; K28 side chain carries C20DA-gGlu-gGlu-gGlu-gGlu-Glu-gGlu-eLys (so in the source); C-terminal amide) [Compound 190]",
    "UNIT INFO": "nM",
    "EC50 hGLP1R 0.5% hP (CreLuc)": 0.1
  },
  {
    "BINDER": "YXEGTFTSDYSIXLEKQAQXAFVEWLIKGGPSEGASLRHYYNWLTRQRY (Aib at 2, 13, 20; NMeR (N-methyl-L-arginine) at 48; K28 side chain carries C20DA-gGlu-gGlu-gGlu-gGlu-gGlu-gGlu-eLys; C-terminal amide) [Compound 236]",
    "UNIT INFO": "nM",
    "EC50 hGLP1R 0.5% hP (CreLuc)": 0.26
  }
]
